What Percent Effect was measured for each of the following?
assay-target: Aspartate--tRNA(Asp/Asn) ligase (Mycobacterium tuberculosis (strain ATCC 25618 / H37Rv))
Sequence (whole entry): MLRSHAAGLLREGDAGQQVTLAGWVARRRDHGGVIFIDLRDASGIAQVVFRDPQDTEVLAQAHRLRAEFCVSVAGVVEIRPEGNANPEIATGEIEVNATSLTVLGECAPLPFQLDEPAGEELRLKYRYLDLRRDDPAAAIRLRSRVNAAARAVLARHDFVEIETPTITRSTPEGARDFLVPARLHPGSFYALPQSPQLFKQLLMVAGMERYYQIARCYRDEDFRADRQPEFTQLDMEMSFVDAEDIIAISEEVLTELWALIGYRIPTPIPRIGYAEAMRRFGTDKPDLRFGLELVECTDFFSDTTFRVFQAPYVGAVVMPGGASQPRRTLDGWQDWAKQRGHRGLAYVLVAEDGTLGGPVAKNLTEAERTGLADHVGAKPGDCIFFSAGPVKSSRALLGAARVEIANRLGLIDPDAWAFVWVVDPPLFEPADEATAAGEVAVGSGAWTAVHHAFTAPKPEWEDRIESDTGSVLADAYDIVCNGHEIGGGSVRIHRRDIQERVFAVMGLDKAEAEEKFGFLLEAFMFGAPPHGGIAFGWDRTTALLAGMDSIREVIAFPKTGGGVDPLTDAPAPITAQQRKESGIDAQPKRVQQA
assay-comment: Assay for Asp RNA synthetase-1 from Mycobacterium tuberculosis
Assay type: functional
Set-up: scale not given: in the data most compounds retested in dose-response had high values
condition-set: 30 µM
Quick reminder: number only, in %, skip the unit.

Exercise: Lab request: please report Percent Effect under test system Aspartate--tRNA(Asp/Asn) ligase (Mycobacterium tuberculosis (strain ATCC 25618 / H37Rv)) for Cc1ccc(N2CCCN(C(=O)C(C(C)C)n3cncn3)CC2)nn1 (stereo not drawn)
Key: -4.34

Exercise: Lab request: please report Percent Effect under test system Aspartate--tRNA(Asp/Asn) ligase (Mycobacterium tuberculosis (strain ATCC 25618 / H37Rv)) for CCS(=O)(=O)CCN1CCCC1c1noc(C2CC2)n1 (stereo not drawn)
Key: -2.94

Exercise: Lab request: please report Percent Effect under test system Aspartate--tRNA(Asp/Asn) ligase (Mycobacterium tuberculosis (strain ATCC 25618 / H37Rv)) for O=C1CCC2(CCCN(C(=O)c3cscn3)C2)CN1CCc1c[nH]cn1 (stereo not drawn)
Key: 3.83

Exercise: Lab request: please report Percent Effect under test system Aspartate--tRNA(Asp/Asn) ligase (Mycobacterium tuberculosis (strain ATCC 25618 / H37Rv)) for N#Cc1ccnc(N2CCN(C(=O)NC3CCS(=O)(=O)C3)CC2)c1 (stereo not drawn)
Key: -2.74

Exercise: Lab request: please report Percent Effect under test system Aspartate--tRNA(Asp/Asn) ligase (Mycobacterium tuberculosis (strain ATCC 25618 / H37Rv)) for O=C(Cc1ccsc1)N1CCCC(c2n[nH]c3nccnc23)C1 (stereo not drawn)
Key: -5.85

Exercise: Lab request: please report Percent Effect under test system Aspartate--tRNA(Asp/Asn) ligase (Mycobacterium tuberculosis (strain ATCC 25618 / H37Rv)) for c1cncc(OCc2nnn3c2CN(Cc2ccsc2)CCC3)c1
Key: -0.204

Exercise: Lab request: please report Percent Effect under test system Aspartate--tRNA(Asp/Asn) ligase (Mycobacterium tuberculosis (strain ATCC 25618 / H37Rv)) for CN1CCOC(CNCc2nc(-c3ccccc3)cs2)C1 (stereo not drawn)
Key: -7.57

Exercise: Lab request: please report Percent Effect under test system Aspartate--tRNA(Asp/Asn) ligase (Mycobacterium tuberculosis (strain ATCC 25618 / H37Rv)) for CCCc1nc(CN2CCOC(CNc3cccnn3)C2)cs1 (stereo not drawn)
Key: 3.73

Exercise: Lab request: please report Percent Effect under test system Aspartate--tRNA(Asp/Asn) ligase (Mycobacterium tuberculosis (strain ATCC 25618 / H37Rv)) for Cc1ncsc1CN1CC[C@H]2C(=O)N(c3ccccc3)CCO[C@H]2C1
Key: -1.84

Exercise: Lab request: please report Percent Effect under test system Aspartate--tRNA(Asp/Asn) ligase (Mycobacterium tuberculosis (strain ATCC 25618 / H37Rv)) for O=C(NCCN1CCNCC1)c1nc2ccccc2c(=O)[nH]1
Key: 2.9

Exercise: Lab request: please report Percent Effect under test system Aspartate--tRNA(Asp/Asn) ligase (Mycobacterium tuberculosis (strain ATCC 25618 / H37Rv)) for CCc1nc(C2CCCN(C(=O)c3ccc4[nH]nnc4c3)C2)no1 (stereo not drawn)
Key: 2.74

Exercise: Lab request: please report Percent Effect under test system Aspartate--tRNA(Asp/Asn) ligase (Mycobacterium tuberculosis (strain ATCC 25618 / H37Rv)) for CN(C)C(=O)N1CCN(C(=O)CCc2ccccc2)[C@H]2CS(=O)(=O)C[C@H]21
Key: 3.33

Exercise: Lab request: please report Percent Effect under test system Aspartate--tRNA(Asp/Asn) ligase (Mycobacterium tuberculosis (strain ATCC 25618 / H37Rv)) for Cc1cc(-c2nn(C)c(Cl)c2CN2CCOCC2CC(=O)O)no1 (stereo not drawn)
Key: -2.48

Exercise: Lab request: please report Percent Effect under test system Aspartate--tRNA(Asp/Asn) ligase (Mycobacterium tuberculosis (strain ATCC 25618 / H37Rv)) for O=C(NCC1CC1)N1CCN(Cc2ccc3c(c2)OCCO3)CC1
Key: 0.365

Exercise: Lab request: please report Percent Effect under test system Aspartate--tRNA(Asp/Asn) ligase (Mycobacterium tuberculosis (strain ATCC 25618 / H37Rv)) for O=C(NCC1CC1)c1nc(COc2ccc3c(c2)OCO3)no1
Key: -5.11

Exercise: Lab request: please report Percent Effect under test system Aspartate--tRNA(Asp/Asn) ligase (Mycobacterium tuberculosis (strain ATCC 25618 / H37Rv)) for Cn1cc(CN2CCC3(CC(=O)N(c4ccc5c(c4)OCO5)C3)C2)cn1 (stereo not drawn)
Key: 2.85

Exercise: Lab request: please report Percent Effect under test system Aspartate--tRNA(Asp/Asn) ligase (Mycobacterium tuberculosis (strain ATCC 25618 / H37Rv)) for COCCN1CCCC(O)(CN2CCN(c3ncccc3C)CC2)C1=O (stereo not drawn)
Key: 5.57

Exercise: Lab request: please report Percent Effect under test system Aspartate--tRNA(Asp/Asn) ligase (Mycobacterium tuberculosis (strain ATCC 25618 / H37Rv)) for COc1ccc2c(c1)CCN(CCC(=O)O)CC2
Key: 3.94

Exercise: Lab request: please report Percent Effect under test system Aspartate--tRNA(Asp/Asn) ligase (Mycobacterium tuberculosis (strain ATCC 25618 / H37Rv)) for O=C1[C@H]2CN(CC3CC3)C[C@H]2CN1Cc1cccc(F)c1
Key: 1.33

Exercise: Lab request: please report Percent Effect under test system Aspartate--tRNA(Asp/Asn) ligase (Mycobacterium tuberculosis (strain ATCC 25618 / H37Rv)) for CCOC(=O)c1sc2ccsc2c1CNC(=O)C(C)(C)C#N
Key: 0.67

Exercise: Lab request: please report Percent Effect under test system Aspartate--tRNA(Asp/Asn) ligase (Mycobacterium tuberculosis (strain ATCC 25618 / H37Rv)) for CN(C)S(=O)(=O)N1CCC2(CCCN(Cc3ccc(F)cc3)C2=O)C1 (stereo not drawn)
Key: -2.05

Exercise: Lab request: please report Percent Effect under test system Aspartate--tRNA(Asp/Asn) ligase (Mycobacterium tuberculosis (strain ATCC 25618 / H37Rv)) for CC(C)Oc1cccc(C(O)CNC(=O)CCc2ccncc2)c1 (stereo not drawn)
Key: -1.28

Exercise: Lab request: please report Percent Effect under test system Aspartate--tRNA(Asp/Asn) ligase (Mycobacterium tuberculosis (strain ATCC 25618 / H37Rv)) for O=S(=O)(C1CC1)N1CCO[C@H]2[C@H](OCCN3CCCC3)CC[C@@H]21
Key: 2.59
